# testSystem: T1, SCRIB-34/4 (MBP fusion of the tandem of the third and fourth PDZ domains of SCRIB) (human, UniProt Q14160-1 997-1193)
# T1 construct: also called MBP-PDZ analyte SCRIB-34/4; tandem PDZ construct; source: E. coli BL21 DE3, purified (amylose column, Superdex 75 gel filtration)
# T1 sequence (looked up): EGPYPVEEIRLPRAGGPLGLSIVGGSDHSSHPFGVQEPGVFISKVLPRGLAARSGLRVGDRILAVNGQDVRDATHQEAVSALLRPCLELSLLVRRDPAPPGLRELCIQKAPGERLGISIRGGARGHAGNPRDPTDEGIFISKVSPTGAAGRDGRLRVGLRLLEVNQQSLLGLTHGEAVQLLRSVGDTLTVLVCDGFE
# runDescription: SPR
# testSettings: both partners purified
Ends that are not written are not given here. * marks the point of attachment. Biotin = O=C1N[C@H]2[C@H](CS[C@H]2CCCCC(=O)*)N1
readoutName: Kd (µM)
Return type: number; implicit unit µM.

[in] Name the recorded Kd for Biotin-PMESGICTIV (also called TTC24 long; source: synthetic peptide (JPT Peptide Technologies)) [TTC24_10 (long peptide of Tetratricopeptide repeat protein 24: the last ten residues)] .
[out] 49
